Origin of values: the supplement of paper PMC12764529

test: folding stability dG unfold (combined trypsin and chymotrypsin); higher = more stable
property-measured: folding stability dG unfold (kcal/mol)

* SAGGSAGGSAGGPKVEVLEVFEFGDLRFVKVYDPETGKVTLLAVTRSDGSKVTFFNPEESAGGSAGGSAGGS [r10_655_TrMRF] | 2.23
* SAGGSAGGSAGGSLETRPVLLILKDEEGKPYAVARLEVRELPNGGVEVTVTEIVPAEELSAGGSAGGSAGGS [r4_117_TrMRF] | 1.36
* SAKFRPVEIPFEIKLEEKDPEDGKKEEREFDIKVKIMVFPDNGMVFISIEFIELGRPITIMLPPGAPIISAG [r14_587_TrROS] | 3.08
* SAGGIIEIDPNGWVIRIEMYPPDGKPPKHTIPFPNATPEELIDELKDWADQLPNPGHKVKIDEITPMPSAGG [r13_29_TrROS] | 0.177
* SAGMNTITFEYKTKDHYVKIDVQVYPPNEGYIRISIEIYNKDGEPKKEVKITIPAPPGDPAVRDFLDQFSAG [r5_964_TrROS] | 2.73

====

assay: folding stability dG unfold (combined trypsin and chymotrypsin); higher = more stable
property-measured: folding stability dG unfold

- SAGMSTSSPTAKSTVLETSEEGNTVTKKVKVTTPSKDSSGNSSTTTTTTTITTELKGKPEPKTPEYYAKSAG [r5_70_JUSTAS]: < -1 kcal/mol
- SAGPPNMEPVETHTFPFPGKKIKIKVYRNPDGHVKIKLEDPGKKIEQSAPVPPGEPVEIPIRLPNGKPISAG [r5_878_TrROS]: < -1 kcal/mol
- SAGGSAGGSAGGSGELELTVVSPLPDGTVKVTRYRVELPEDGLEITEVETEEVPPEEAGSAGGSAGGSAGGS [r4_389_TrMRF]: < -1 kcal/mol

====

assay: folding stability dG unfold from chymotrypsin proteolysis; higher = more stable
Binary classification by folding stability dG unfold, with 0.08 kcal/mol as an inclusive lower bound for fulfilled; all other cases are not fulfilled.

• SAGGSAGGSARTVPPDLLVRVETPDEERIVPVSELDAFFARHPDVPWRDITVVDPATGAARSAGGSAGGSAG [r3_134_JUSTAS] = fulfilled
• SAGGSAGGSKPIVAPVSVEDLTLEGLKALVDSHPEGEVPIFVTRSDGKPLVITVLPDGELSLDSAGGSAGGS [r12_1054_TrMRF] = not fulfilled
• SAGGPNFIVKIRIPMRKYERENDPGGKPKWEPVEPQRVEITIIFKGPPEQAKQIREELENHGLEVEPISAGG [r13_452_TrROS] = fulfilled
• SAGGSAGGGEPFVIRVELEWPNNNSIPFNIPFPPGDAITAAKNIASPLRKMGRPIKIKITDIYPSAGGSAGG [r6_721_TrROS] = fulfilled
• SAGGLEEVAQELEAQGGEVEVRKVGGGSTEITVRLREPEAPRLLEVRLSLPPAGARLQVLSREALPPSAGGS [r16_613_JUSTAS] = not fulfilled
• SAGGSAGGSAGGYFIRINNGRTFPFPSPEDAEEIVKTIARPFGHPDMTIEIYRMPPEQFPSAGGSAGGSAGG [r7_839_TrROS] = not fulfilled

====

test: folding stability dG unfold (combined trypsin and chymotrypsin); higher = more stable
property-measured: folding stability dG unfold (kcal/mol)

- SAGGSAGGSAGMSALVLKVKIYYPKELFSPEEIEKIKSARIEVEPFLVEVKIDPETGELGSAGGSAGGSAGG [r17_310_TrMRF]: 2.38
- SAGGSAGGSAGVPVVVRTVTGPEGGYVVVEFPNLKKVVLLPFTDGKPRPVVFDTDEVLKLVSAGGSAGGSAG [r3_426_TrMRF]: 0.825

====

List of folding stability dG unfold values.
assay: folding stability dG unfold (combined trypsin and chymotrypsin); higher = more stable
property-measured: folding stability dG unfold (kcal/mol)

- SAGGSAGGKKPVYEIEITTKDGSKLTIAVKEGEEVEIKITVNGKEISLEDITSIEIRPVELPEESAGGSAGG [r6_222_TrROS_Hall]: 1.94
- SAGGSAGGSAGSMTSISVDVPVPGKNVVTVTVTLPPNTTTVTITVEPLPNGELKVTVETSSAGGSAGGSAGG [r11_657_JUSTAS]: 2.78
- SAGGSAGGSAPDVEVEPFTLPSGEEAVAFRLPDGSRVVLVGDKAVLFYKDGKVEEVPLEEILSAGGSAGGSA [r18_379_TrMRF]: 1.76
- SGMIDVDLDYTTEDGRPVKVSASYDPATGVLTFKVPDNDDVIIATVTEVTTEDESVTVTLNVTRYSKELLSA [r9_587_JUSTAS]: 2.09
- SAGGLTWEEAREIAEEIANMEVPSPNGMPMKVKVDIEIDPPNGYFRVDVKVEMPGKPQKFPLEIPLKSAGGS [r16_812_TrROS]: 0.673
- SAGGSAGGSMKIPSDYTLTPIETKDNGASTVTLEKVTYPGPSLLATFLTPPDGTVTLLEVKPVSAGGSAGGS [r20_103_JUSTAS]: 0.997
- SAGGSAGGMKVTLTPVSGEKYEIEVESEEEAKEKVEKLAKKLGIPGEVKVTIEKGDKTYELTIISAGGSAGG [r6_532_JUSTAS]: 2.39
- SAGGSAGGSAGGMPVEVTTLETRKDPAGTTTEITLDPKTGRTIIVTKYPNGGSETTVVESAGGSAGGSAGGS [r10_1118_JUSTAS]: 0.622
- SAGGSAGGSAPPNLKIEIDLQRHPEDDHIFLEMEATYPDDGKELKVMIMINPDDGKIGIMIMSAGGSAGGSA [r18_383_TrROS]: 3.34
- SAGGSAGGSAGPLTLTATFLSDYNYAVTVTLTFEVDENGNLSVSGEVEIRPVPPLGPGNASAGGSAGGSAGG [r11_728_TrMRF]: 3.72
- SAGGSAGGSAGGLEELKKGFKKPVFVAKIEKEVRLLPNGDLIVRYKIEGPDLELELVFSSAGGSAGGSAGGS [r10_160_TrMRF]: 3.28
- SAGGSAGGSAGGSPNWVWILITVKITFPIYKYDPDGKPLEPIEITIEFTVLIRIPPGDFSAGGSAGGSAGGS [r4_425_TrROS]: 5.15
- SAGGSAKMTLIIKVSPEMTKEELEELARKLAEELNVKVEIEYDEETGLATVTIEKDGKKIEIIVERSAGGSA [r15_168_TrROS_Hall]: 2.49
- SAGGSAGGSAGPPDQNFLIKIKWQENGKKREHTIPIPAENLDEVLDELSPWPGLEVEIIPSAGGSAGGSAGG [r17_50_TrROS]: -0.376
- SEEIIKALEEAGYEVESIEYDEETKTVTITIYRKNKETGKIEKKTITIEVEPGMTEEELLALARELLEKESA [r9_184_TrROS_Hall]: 4.83
- SAGGMIKVEVEPLEDGVLRVRVYVPHPDGPPIEIEVVFPPEVGSLEEALEKAVEVVEEFLKKHNIPLSAGGS [r8_464_TrMRF]: 2.36
- SAGGSAGGSAGGKKTITVPVKIEEVDGKFRITLPDGKVIEFPPGAKVEEKDGLLTIELESAGGSAGGSAGGS [r10_305_TrROS_Hall]: 1.14
- SAGGMKVIELTVDEIKELADKLKENKNLKATIYVNGKKVELEFDTVEDALKALKVKPGDTVLIEIEPSAGGS [r16_377_TrROS_Hall]: 3.48
- SAGGSAGGSAGGSKIRLKINMTEEELKELLKKLFPNAKVTRIERKKDGSIYVEIELEPESAGGSAGGSAGGS [r4_95_TrROS_Hall]: 3.09

====

experiment: folding stability dG unfold from chymotrypsin proteolysis; higher = more stable
property-measured: folding stability dG unfold (kcal/mol)

* SAKFRVTEIHPNGNNFEIRIERYDPNGEKKKLPIPVNADNMQIDEVDGDKITIYFPNNGREITLPLEDLSAG [r14_947_TrROS] | -0.114
* SAGGMVTVDTDPTEDGTLRVTVTVPRPDGPALTLTLDFPPEAGSLAVVLARADEALAAEMARRGLALSAGGS [r8_464_JUSTAS] | 1.95
* SAGGSAGGSAMTITVEVPPSVPAEEAAERVAERLRAEFPVPDIRVTVETTPDGTVTVTITEASAGGSAGGSA [r18_1_JUSTAS] | 0.436
* SAGGMITLTTKTELIGSYRVTYSVTVDPVDDSVVTSTHVTVTPLPPPPPPLPPVPPENPVLPSPRLESAGGS [r8_234_JUSTAS] | 0.56

====

assay: folding stability dG unfold (combined trypsin and chymotrypsin); higher = more stable
property-measured: folding stability dG unfold (kcal/mol)

• SAGGMVTVDTDPTEDGTLRVTVTVPRPDGPALTLTLDFPPEAGSLAVVLARADEALAAEMARRGLALSAGGS [r8_464_JUSTAS] = 1.44
• SAGGFTIEFPLPPGESPDEIKDEIMDMVRPIADEHGFKNVKIPITNVRWQPPGRRRFTINIEIKFPGSAGGS [r8_184_TrROS] = 0.727
• SAMIEIEIEVEEREDGRLIVRVRIRNKETGEEIELELEMSREEVEKLLEELKKLFPNLEIVEVEIRELPSAG [r14_969_TrROS_Hall] = 3.98
• SAGGSAMKITLKPDGTLEIELPDGVKITITRNANGEVTITITYPDGETKTFPAGMTLEQVLAELLASAGGSA [r15_371_TrROS_Hall] = 3.42
